- Tested on: M. catarrhalis ATCC 43627
- experiment notes: Agar Dilution Method MIC, M. catarrhalis ATCC 43627
- Type: cell-based, Morexella catarrhalis
- test parameters: Moraxella catarrhalis, ATCC43627, Mueller Hinton Agar, 35° Celsius, 20 hours, read-out: Minimum Inhibitory Concentration (MIC in μg/ml)
- Description: Briefly, the compounds of invention were weighed, dissolved in Dimethyl Sulfoxide, serially diluted in the same solvent and then incorporated into molten Mueller Hinton Agar in a petridish before solidification, with each petridish containing a different concentration of a compound. […]
property measured: MIC (µg/mL)

CC(=S)NC[C@H]1CN(c2ccc(N3CCN(C(=S)c4cnccn4)CC3)c(F)c2)C(=O)O1 [Example 14] : 2

a: CC(=S)NC[C@H]1CN(c2ccc(N3CCN(C(=O)Nc4ccc([N+](=O)[O-])cc4)CC3)c(F)c2)C(=O)O1 [Example 46]
b: CC(=S)NC[C@H]1CN(c2ccc(N3CCN(C(=S)c4ccsc4)CC3)c(F)c2)C(=O)O1 [Example 1]
Req: Task for the reader: decide whether a or b has the larger MIC. Answer format: the label of the selected item.
Resp: a
(a: 2 µg/mL, b: 1 µg/mL)
